All figures here come from paper PMC7155171.

# Tested on: HepG2-A16-CD81 hepatocytes
# Design: Uninfected hepatocyte viability, CellTiter-Glo luminescence
# testSettings: cytotoxicity primary screen, inhibitor
readoutName: HepG2 toxicity primary screen (10uM): inhibition % (n=1) (%)
Unit % implied. Number only.

Prompt line: Entry "Cc1[nH]n(C2CCCC2)c2nc(C(C)(C)CN3CCN(C)CC3)nc1-2" has what HepG2 toxicity primary screen (10uM): inhibition % (n=1)?
Response line: -6.61

Prompt line: Entry Cc1[nH]n(C2CCS(=O)(=O)C2)c(=O)c1Cc1ccc(Br)cc1 (stereo not drawn) has what HepG2 toxicity primary screen (10uM): inhibition % (n=1)?
Response line: -41.615

Prompt line: Entry Cc1[nH]n(C2CCS(=O)(=O)C2)c(=O)c1Cc1cccc(Cl)c1 (stereo not drawn) has what HepG2 toxicity primary screen (10uM): inhibition % (n=1)?
Response line: -46.865

Prompt line: Entry CCc1cc(=O)n2nc(C3CCCN3C(=O)c3ccccn3)cc2[nH]1 (stereo not drawn) has what HepG2 toxicity primary screen (10uM): inhibition % (n=1)?
Response line: -0.805

Prompt line: Entry "CCc1nn2c(N)c(C#N)nnc2c1-c1ccc(OC)cc1" has what HepG2 toxicity primary screen (10uM): inhibition % (n=1)?
Response line: -3.73

* * *

# Test system: P. berghei liver stage (PbLuc)
# Design: species or system HepG2-A16-CD81; P. berghei luciferase sporozoite infection of hepatocytes, liver stage luminescence
# testSettings: 48 h, inhibitor
Kind request: treat 20% as inclusive, so PbLuc primary screen (10uM): inhibition % (n=1) at 20% or higher is yes (1), anything lower is no (0).

[
  {
    "molecule": "Cc1[nH]c2cc(C3CCN(Cc4cccc(F)c4F)C3)nn2c(=O)c1C (centres unmarked)",
    "labelClass": "yes (1)"
  },
  {
    "molecule": "CCc1nc(CN(C)C2CCN(CCn3cc(C#N)cn3)C2)no1 (centres unmarked)",
    "labelClass": "yes (1)"
  },
  {
    "molecule": "COc1ccc(-c2c(C)nn3c(N)c(C#N)nnc23)cc1",
    "labelClass": "no (0)"
  },
  {
    "molecule": "O=C(CNC(=O)N1CCc2c([nH]c3ccc(Cl)cc23)C1)N1CCOCC1",
    "labelClass": "no (0)"
  }
]

Prompt line: Check the entry "Cc1[nH]n(Cc2ccc(F)cc2)c2nnc(N)c1-2" : does PbLuc primary screen (10uM): inhibition % (n=1) equal or exceed 20%?
Response line: yes (1)

* * *

# System: P. berghei liver stage (PbLuc)
# Design: species or system HepG2-A16-CD81; P. berghei luciferase sporozoite infection of hepatocytes, liver stage luminescence
# testSettings: 48 h, inhibitor
readoutName: PbLuc primary screen (10uM): inhibition % (n=1) (%)
Unit % implied. Number only.

Sample answers from the record:
[
  {
    "molecule": "CCc1nn2c(N)c(C#N)nnc2c1-c1ccc(OC)cc1",
    "unitLabel": "%",
    "quantitativeResult": 22.9
  },
  {
    "molecule": "Clc1cccc(-c2cccc(N3CCC(NC4CCOCC4)CC3)c2)c1",
    "unitLabel": "%",
    "quantitativeResult": 84
  },
  {
    "molecule": "Cc1[nH]n(C2CCS(=O)(=O)C2)c(=O)c1Cc1ccccc1Cl (centres unmarked)",
    "unitLabel": "%",
    "quantitativeResult": 34.1
  },
  {
    "molecule": "CCc1ccc(C(C)NC(=O)CCC2=NC(=C3N=CN=N3)NO2)cc1 (centres unmarked)",
    "unitLabel": "%",
    "quantitativeResult": 38.8
  },
  {
    "molecule": "CCc1cc(=O)n2nc(C3CCN(C(=O)c4ccncc4)CC3)cc2[nH]1",
    "unitLabel": "%",
    "quantitativeResult": 32.85
  },
  {
    "molecule": "Cc1ccccc1CN(C)C(=O)CCC1=NC(=C2N=CN=N2)NO1",
    "unitLabel": "%",
    "quantitativeResult": 13.7
  }
]

Prompt line: Entry "Cc1nc(=O)cc(CCNC(=O)CC[C@@H]2CCCN3CCCC[C@H]23)[nH]1" has what PbLuc primary screen (10uM): inhibition % (n=1)?
Response line: 44.8

Prompt line: Entry "COCC(=O)N1Cc2[nH]c3c(C)c(-c4cccs4)nn3c(=O)c2C1" has what PbLuc primary screen (10uM): inhibition % (n=1)?
Response line: 27.2

Prompt line: Entry "COc1cc(F)ccc1-c1nc2c(C3CC3)[nH]n(C)c-2n1" has what PbLuc primary screen (10uM): inhibition % (n=1)?
Response line: -24.9

Prompt line: Entry "Cc1[nH]n(-c2ccccc2)c2nc(C(C)(C)CN3CCN(C)CC3)nc1-2" has what PbLuc primary screen (10uM): inhibition % (n=1)?
Response line: 8.08

Prompt line: Entry "Cc1cc(=O)n2nc(C3CCN(C(=O)c4ccccn4)CC3)cc2[nH]1" has what PbLuc primary screen (10uM): inhibition % (n=1)?
Response line: 7.55

Prompt line: Entry Cc1cccc(C2N3CCC4(CC3)c3[nH]c5ccccc5c3CCN24)n1 (centres unmarked) has what PbLuc primary screen (10uM): inhibition % (n=1)?
Response line: -19.7

Prompt line: Entry Cc1[nH]n(C2CCS(=O)(=O)C2)c(=O)c1CCc1ccccc1 (centres unmarked) has what PbLuc primary screen (10uM): inhibition % (n=1)?
Response line: 5.33

* * *

# Test system: HepG2-A16-CD81 hepatocytes
# Design: Uninfected hepatocyte viability, CellTiter-Glo luminescence
# testSettings: cytotoxicity primary screen, inhibitor
readoutName: HepG2 toxicity primary screen (10uM): inhibition % (n=1) (%)
Unit % implied. Number only.

Sample answers from the record:
[
  {
    "compound": "COc1cc(OC)c(-c2nc3c(C4CC4)[nH]n(C)c-3n2)cc1OC",
    "subjectOfTest": "HepG2-A16-CD81 hepatocytes",
    "quantitativeResult": -5.02
  },
  {
    "compound": "CCc1nc(CN(C)C2CCN(CCn3cc(C#N)cn3)C2)no1 (centres unmarked)",
    "subjectOfTest": "HepG2-A16-CD81 hepatocytes",
    "quantitativeResult": -6.12
  },
  {
    "compound": "COCCC(=O)N1CCC(c2cc(=O)n(C)[nH]2)C1 (centres unmarked)",
    "subjectOfTest": "HepG2-A16-CD81 hepatocytes",
    "quantitativeResult": -23.1
  },
  {
    "compound": "Cn1ccc(C(=O)N2CCCC(c3cc(=O)n(C)[nH]3)C2)n1 (centres unmarked)",
    "subjectOfTest": "HepG2-A16-CD81 hepatocytes",
    "quantitativeResult": -13.7
  }
]

Let us move to another entry and its HepG2 toxicity primary screen (10uM): inhibition % (n=1).
Prompt line: Entry "COc1cc2c(cc1-c1nc3c[nH]n(C(C)C)c-3n1)OCO2" has what HepG2 toxicity primary screen (10uM): inhibition % (n=1)?
Response line: -6.85

* * *

Here the recorded PbLuc primary screen (2uM): inhibition % (n=1) is given for each entry.
# Test system: P. berghei liver stage (PbLuc)
# Parameters: species or system HepG2-A16-CD81; P. berghei luciferase sporozoite infection of hepatocytes, liver stage luminescence
# testSettings: inhibitor
Unit % implied. Number only.

Sample answers from the record:
[
  {
    "compound": "Cc1nnsc1C(=O)N1CCCCC1c1cc2[nH]c(C)c(C)c(=O)n2n1 (stereo not shown)",
    "quantitativeResult": -26.26
  },
  {
    "compound": "CCn1[nH]cc2nc(-c3cc4c(cc3OC)OCO4)nc1-2",
    "quantitativeResult": 27.42
  },
  {
    "compound": "CCc1c(C)[nH]c2cc(C3CCN(Cc4ccccc4F)C3)nn2c1=O (stereo not shown)",
    "quantitativeResult": 29.7326
  },
  {
    "compound": "COc1cc2c(cc1-c1nc3c[nH]n(C(C)C)c-3n1)OCO2",
    "quantitativeResult": 60.13
  }
]

Prompt line: Report PbLuc primary screen (2uM): inhibition % (n=1) for "Fc1cccc(C2=NN=CC2=C2NC(CN3CCOCC3)=NO2)c1" tested on P. berghei liver stage (PbLuc).
Response line: 24.36

Prompt line: Report PbLuc primary screen (2uM): inhibition % (n=1) for CCc1c(C)nn2c(=O)cc(C3CCN(C(=O)C4CC4)C3)[nH]c12 (stereo not shown) tested on P. berghei liver stage (PbLuc).
Response line: 11.53

Prompt line: Report PbLuc primary screen (2uM): inhibition % (n=1) for "Cc1nsc(N2CCCN(CC(=O)N(C)C3CC3)CC2)n1" tested on P. berghei liver stage (PbLuc).
Response line: -11.55

* * *

# Test system: HepG2-A16-CD81 hepatocytes
# Design: Uninfected hepatocyte viability, CellTiter-Glo luminescence
# testSettings: cytotoxicity primary screen, inhibitor
Kind request: treat -20% as inclusive, so HepG2 toxicity primary screen (10uM): inhibition % (n=1) at -20% or higher is 1, anything lower is -1.

Here are 6 compounds together with their reported answers.
[
  {
    "compound": "Cn1nc(C2CC2)c(-c2ccc3c(c2)OCO3)c1N",
    "subjectOfTest": "HepG2-A16-CD81 hepatocytes",
    "labelClass": -1
  },
  {
    "compound": "CCc1c(C)[nH]c2cc(C3CCN(Cc4ccc(F)cc4)C3)nn2c1=O (stereo not shown)",
    "subjectOfTest": "HepG2-A16-CD81 hepatocytes",
    "labelClass": 1
  },
  {
    "compound": "COc1ccc(-c2c(C(C)C)nn3c(N)c(C#N)nnc23)cc1",
    "subjectOfTest": "HepG2-A16-CD81 hepatocytes",
    "labelClass": 1
  },
  {
    "compound": "Cc1[nH]c2cc(C3CCN(Cc4cccc(F)c4F)C3)nn2c(=O)c1C (stereo not shown)",
    "subjectOfTest": "HepG2-A16-CD81 hepatocytes",
    "labelClass": 1
  },
  {
    "compound": "CCn1[nH]cc2nc(-c3ccc(OC)c(COC)c3)nc1-2",
    "subjectOfTest": "HepG2-A16-CD81 hepatocytes",
    "labelClass": 1
  },
  {
    "compound": "Cn1cc(C(=O)N2CCCC(c3cc(=O)n(C)[nH]3)C2)cn1 (stereo not shown)",
    "subjectOfTest": "HepG2-A16-CD81 hepatocytes",
    "labelClass": -1
  }
]

Prompt line: Check the entry CCc1c(C)nn2c(=O)cc(C3CCN(C(=O)C4CC4)C3)[nH]c12 (stereo not shown) : does HepG2 toxicity primary screen (10uM): inhibition % (n=1) equal or exceed -20%?
Response line: 1
